Assay: Pharmacokinetic experiment in mice
Assay type: in vivo, CD-1 female mice
Settings: female, CD-1, mouse, plasma, Oral administration (10 mg/kg)
measurement-kind: Tmax (min)
One number for each entry, in min.

Examples with answers:
compound	Tmax [min]
[2H]c1cc(C(=O)Nc2ccc(F)cc2N)ccc1CNC(=O)/C=C/c1cccnc1 [Compound 5]	10.2
[2H]c1cc(CNC(=O)/C=C/c2cccnc2)ccc1C(=O)Nc1ccc(F)cc1N [Compound 4]	4.8
[2H]c1cncc(/C=C/C(=O)NCc2ccc(C(=O)Nc3ccc(F)cc3N)cc2)c1 [Compound 11]	4.8
Nc1cc(F)ccc1NC(=O)c1ccc(CNC(=O)/C=C/c2cccnc2)cc1 [Chidamide, reference compound]	10.2
[2H]c1c(F)ccc(NC(=O)c2ccc(CNC(=O)/C=C/c3cccnc3)cc2)c1N [Compound 2]	4.8
[2H]/C(=C\C(=O)NCc1ccc(C(=O)Nc2ccc(F)cc2N)cc1)c1cccnc1 [Compound 8]	4.8
[2H]c1cc(NC(=O)c2ccc(CNC(=O)/C=C/c3cccnc3)cc2)c(N)cc1F [Compound 1]	4.8
[2H]c1ncccc1/C=C/C(=O)NCc1ccc(C(=O)Nc2ccc(F)cc2N)cc1 [Compound 9]	10.2
[2H]c1ccc(/C=C/C(=O)NCc2ccc(C(=O)Nc3ccc(F)cc3N)cc2)cn1 [Compound 12]	10.2

Req: Need Tmax of [2H]c1cc(F)cc(N)c1NC(=O)c1ccc(CNC(=O)/C=C/c2cccnc2)cc1 [Compound 3] , thanks.
Resp: 4.8
